Test system: PC-3 [JPC-3]
Test: relative viability (nuclei count vs DMSO), 5 days (fraction); higher = more cells survive
Conditions: first compound 0.5 µM
relative viability reference

COMPOUND	relative viability
CC1(C)CCC(c2ccc(Cl)cc2)=C(CN2CCN(c3ccc(C(=O)NS(=O)(=O)c4ccc(N[C@H](CCN5CCOCC5)CSc5ccccc5)c(S(=O)(=O)C(F)(F)F)c4)cc3)CC2)C1 [Navitoclax] + O=C(CCCCCCC(=O)Nc1ccccc1)NO [Vorinostat] (partner 1 µM)	0.499

Let us examine a further case.
relative viability measured on CC1(C)CCC(c2ccc(Cl)cc2)=C(CN2CCN(c3ccc(C(=O)NS(=O)(=O)c4ccc(N[C@H](CCN5CCOCC5)CSc5ccccc5)c(S(=O)(=O)C(F)(F)F)c4)cc3)CC2)C1 [Navitoclax] + Cc1nc(Nc2ncc(C(=O)Nc3c(C)cccc3Cl)s2)cc(N2CCN(CCO)CC2)n1 [Dasatinib] (partner 0.075 µM) = 0.858
